- System: Stellaria media (STEME)
- runDescription: Post-emergence glasshouse herbicide test, visual phytotoxicity
- Type: in vivo
- conditionsUsed: 1.25 g/ha, 13 days
Form field: percentage phytotoxicity STEME (one value per entry).
quantity: percentage phytotoxicity STEME (%)

samplesmiles=CCOC(=O)COc1ncccc1Oc1cc(-n2c(=O)cc(C(F)(F)F)n(C)c2=O)c(F)cc1Cl measurement=100
samplesmiles=Nc1c(F)c(-c2ccc3cc[nH]c3c2F)nc(C(=O)O)c1Cl measurement=75
samplesmiles=CS(=O)(=O)c1ccc(C(=O)C2C(=O)CCCC2=O)c(Cl)c1OCCC1OCCO1 measurement=10
samplesmiles=COc1c(Cl)ccc(-c2nc(C(=O)OCc3ccccc3)c(Cl)c(N)c2F)c1F measurement=65

----------
- Test system: Echinochloa crus-galli (ECHCG)
- runDescription: Post-emergence glasshouse herbicide test, visual phytotoxicity
- Type: in vivo
- conditionsUsed: 0.625 g/ha, 13 days
quantity: percentage phytotoxicity ECHCG

compound=Nc1c(F)c(-c2ccc3cc[nH]c3c2F)nc(C(=O)O)c1Cl quantity="percentage phytotoxicity ECHCG" measurement=0%
compound=COc1c(Cl)ccc(-c2nc(C(=O)OCc3ccccc3)c(Cl)c(N)c2F)c1F quantity="percentage phytotoxicity ECHCG" measurement=0%
compound=CCOC(=O)COc1ncccc1Oc1cc(-n2c(=O)cc(C(F)(F)F)n(C)c2=O)c(F)cc1Cl quantity="percentage phytotoxicity ECHCG" measurement=8%
compound="Cc1ccc2ccc(C)c(C3C(=O)C(Cl)=NN(C)C3=O)c2c1 (centres unmarked)" quantity="percentage phytotoxicity ECHCG" measurement=0%
compound=CS(=O)(=O)c1ccc(C(=O)C2C(=O)CCCC2=O)c(Cl)c1OCCC1OCCO1 quantity="percentage phytotoxicity ECHCG" measurement=0%

----------
- Tested on: Echinochloa crus-galli (ECHCG)
- runDescription: Post-emergence glasshouse herbicide test, visual phytotoxicity
- Assay type: in vivo
- conditionsUsed: 10 g/ha, 13 days
Form field: percentage phytotoxicity ECHCG (one value per entry).
quantity: percentage phytotoxicity ECHCG

compound="COc1c(Cl)ccc(-c2nc(C(=O)OCc3ccccc3)c(Cl)c(N)c2F)c1F [B-I]" experimentaltarget="Echinochloa crus-galli (ECHCG)" measurement=10%
compound="Cc1ccc2ccc(C)c(C3C(=O)C(Cl)=NN(C)C3=O)c2c1 (stereo not shown) [A-I]" experimentaltarget="Echinochloa crus-galli (ECHCG)" measurement=64%
compound="CS(=O)(=O)c1ccc(C(=O)C2C(=O)CCCC2=O)c(Cl)c1OCCC1OCCO1 [B-II]" experimentaltarget="Echinochloa crus-galli (ECHCG)" measurement=5%
compound="Nc1c(F)c(-c2ccc3cc[nH]c3c2F)nc(C(=O)O)c1Cl [B-VI]" experimentaltarget="Echinochloa crus-galli (ECHCG)" measurement=53%
